assayed-system: CRY2/PER2 (Homo sapiens, UniProt O15055+Q49AN0)
assay-details: Modulation activity at CRY2/PER2 in human U2OS cells harboring per2-dLuc assessed as activation of per2 activity measured every 100 mins for 5 days by luciferase reporter gene assay
Format: cell-based
value-type: EC50

compound | value-type | recorded-measurement
O=C1OCCN1CC(O)Cn1c2ccc(F)cc2c2cc(F)ccc21 (stereo unspecified) | EC50 | 9770 nM
COC1CCC(=O)N(CC(O)Cn2c3ccc(F)cc3c3cc(F)ccc32)C1 (stereo unspecified) | EC50 | 397 nM
CC(C)C1CCCN(CC(O)Cn2c3ccc(F)cc3c3cc(F)ccc32)C1=O (stereo unspecified) | EC50 | 79 nM
CC1CCN(CC(O)Cn2c3ccc(F)cc3c3cc(F)ccc32)C(=O)N1 (stereo unspecified) | EC50 | 417 nM
O=C1C2CC2CCN1CC(O)Cn1c2ccc(F)cc2c2cc(F)ccc21 (stereo unspecified) | EC50 | 167 nM
CN1CCCN(CC(O)Cn2c3ccc(F)cc3c3cc(F)ccc32)C1=O (stereo unspecified) | EC50 | 719 nM
CC1CCN(CC(O)Cn2c3ccc(F)cc3c3cc(F)ccc32)C1=O (stereo unspecified) | EC50 | 424 nM
O=C1Cc2ccccc2CN1CC(O)Cn1c2ccc(F)cc2c2cc(F)ccc21 (stereo unspecified) | EC50 | 15200 nM
CC1CNC(=O)N1CC(O)Cn1c2ccc(F)cc2c2cc(F)ccc21 (stereo unspecified) | EC50 | 1190 nM
CC1CNC(=O)N(CC(O)Cn2c3ccc(F)cc3c3cc(F)ccc32)C1 (stereo unspecified) | EC50 | 833 nM
CC1CN(CC(O)Cn2c3ccc(F)cc3c3cc(F)ccc32)C(=O)N1 (stereo unspecified) | EC50 | 667 nM

###

assay-details: MRT in db/db mouse at 30 mg/kg, po qd after 1 to 24 hrs
Type: ADME, organism-based
condition-context: in vivo

compound | MRT (h)
O=C1C(F)CCN1CC(O)Cn1c2ccc(F)cc2c2cc(F)ccc21 (stereo not drawn) | 3.27
CN1CCCN(CC(O)Cn2c3ccc(F)cc3c3cc(F)ccc32)C1=O (stereo not drawn) | 3.51
COC1CCCN(CC(O)Cn2c3ccc(F)cc3c3cc(F)ccc32)C1=O (stereo not drawn) | 2.68
CC1CN(CC(O)Cn2c3ccc(F)cc3c3cc(F)ccc32)C(=O)N1 (stereo not drawn) | 4.16
O=C1NCCN1CC(O)Cn1c2ccc(F)cc2c2cc(F)ccc21 (stereo not drawn) | 6.76
O=C1CCCN1CC(O)Cn1c2ccc(F)cc2c2cc(F)ccc21 (stereo not drawn) | 3.32
O=C1NCCCN1CC(O)Cn1c2ccc(F)cc2c2cc(F)ccc21 (stereo not drawn) | 2.98
O=C1C2CCC(C2)N1CC(O)Cn1c2ccc(F)cc2c2cc(F)ccc21 (stereo not drawn) | 2.92

###

Tested on: Mus musculus
assay-details: Unbound Cmax in db/db mouse at 30 mg/kg, po qd after 1 to 24 hrs
Assay type: ADME, organism-based
condition-context: in vivo
For each record, check the reported fCmax: if it is below 0.01 µM write Condition met, else write Condition not met.

compound | group
O=C1C(F)CCN1CC(O)Cn1c2ccc(F)cc2c2cc(F)ccc21 (stereo not drawn) | Condition not met
CN1CCCN(CC(O)Cn2c3ccc(F)cc3c3cc(F)ccc32)C1=O (stereo not drawn) | Condition met
O=C1CCCN1CC(O)Cn1c2ccc(F)cc2c2cc(F)ccc21 (stereo not drawn) | Condition not met
COC1CCCN(CC(O)Cn2c3ccc(F)cc3c3cc(F)ccc32)C1=O (stereo not drawn) | Condition met
O=C1NCCCN1CC(O)Cn1c2ccc(F)cc2c2cc(F)ccc21 (stereo not drawn) | Condition not met
O=C1NCCN1CC(O)Cn1c2ccc(F)cc2c2cc(F)ccc21 (stereo not drawn) | Condition not met

###

assayed-system: CRY2/PER2 (Homo sapiens, UniProt O15055+Q49AN0)
Sequence (O15055 whole entry): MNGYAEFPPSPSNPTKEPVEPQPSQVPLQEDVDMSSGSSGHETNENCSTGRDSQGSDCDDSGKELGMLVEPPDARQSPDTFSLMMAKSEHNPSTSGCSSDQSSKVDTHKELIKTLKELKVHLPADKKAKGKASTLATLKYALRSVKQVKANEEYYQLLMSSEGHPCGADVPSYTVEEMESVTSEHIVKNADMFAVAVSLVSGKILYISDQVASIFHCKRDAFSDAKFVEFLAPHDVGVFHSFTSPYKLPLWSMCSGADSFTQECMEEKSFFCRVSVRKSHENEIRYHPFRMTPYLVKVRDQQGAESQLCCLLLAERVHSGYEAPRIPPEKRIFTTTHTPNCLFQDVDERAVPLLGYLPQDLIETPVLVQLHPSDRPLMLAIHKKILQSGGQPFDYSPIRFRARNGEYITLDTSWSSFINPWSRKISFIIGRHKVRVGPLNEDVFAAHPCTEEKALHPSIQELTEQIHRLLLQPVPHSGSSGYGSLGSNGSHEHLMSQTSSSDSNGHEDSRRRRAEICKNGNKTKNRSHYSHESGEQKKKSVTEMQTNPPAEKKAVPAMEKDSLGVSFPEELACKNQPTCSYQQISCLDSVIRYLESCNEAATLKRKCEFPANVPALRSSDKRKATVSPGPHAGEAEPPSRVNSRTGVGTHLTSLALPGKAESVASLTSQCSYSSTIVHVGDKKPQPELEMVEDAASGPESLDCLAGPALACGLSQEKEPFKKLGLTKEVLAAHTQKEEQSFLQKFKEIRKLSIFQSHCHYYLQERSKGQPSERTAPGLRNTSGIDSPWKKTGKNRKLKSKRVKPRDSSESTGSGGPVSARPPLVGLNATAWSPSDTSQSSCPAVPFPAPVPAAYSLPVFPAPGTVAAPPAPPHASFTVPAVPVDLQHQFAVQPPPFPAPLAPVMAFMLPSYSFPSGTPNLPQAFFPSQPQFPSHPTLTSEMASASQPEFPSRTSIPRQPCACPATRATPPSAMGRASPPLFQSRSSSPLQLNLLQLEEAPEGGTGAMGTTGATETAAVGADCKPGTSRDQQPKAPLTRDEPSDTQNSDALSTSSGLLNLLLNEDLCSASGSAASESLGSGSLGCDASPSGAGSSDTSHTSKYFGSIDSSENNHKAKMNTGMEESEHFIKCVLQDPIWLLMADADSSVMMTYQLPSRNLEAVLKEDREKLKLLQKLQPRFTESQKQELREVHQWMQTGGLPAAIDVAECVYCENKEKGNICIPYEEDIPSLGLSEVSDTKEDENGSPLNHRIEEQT
Sequence (Q49AN0 whole entry): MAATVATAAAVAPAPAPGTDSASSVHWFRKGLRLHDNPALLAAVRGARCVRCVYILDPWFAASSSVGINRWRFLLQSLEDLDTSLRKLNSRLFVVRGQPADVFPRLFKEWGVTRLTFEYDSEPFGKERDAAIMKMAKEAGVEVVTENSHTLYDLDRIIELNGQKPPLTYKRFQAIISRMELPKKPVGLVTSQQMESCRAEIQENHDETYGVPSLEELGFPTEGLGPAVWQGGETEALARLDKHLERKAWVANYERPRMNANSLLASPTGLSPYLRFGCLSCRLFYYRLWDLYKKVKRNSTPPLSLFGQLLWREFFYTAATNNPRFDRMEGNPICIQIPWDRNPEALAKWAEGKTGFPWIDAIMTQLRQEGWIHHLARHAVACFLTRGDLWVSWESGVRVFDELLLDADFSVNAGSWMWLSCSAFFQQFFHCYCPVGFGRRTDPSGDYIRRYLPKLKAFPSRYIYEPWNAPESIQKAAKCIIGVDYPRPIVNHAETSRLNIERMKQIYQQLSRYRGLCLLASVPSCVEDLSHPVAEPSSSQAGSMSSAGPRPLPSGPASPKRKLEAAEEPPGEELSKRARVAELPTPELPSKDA
assay-details: Modulation activity at CRY2/PER2 in human U2OS cells harboring per2-dLuc assessed as activation of per2 activity measured every 100 mins for 5 days by luciferase reporter gene assay
pEC50: −log10 of the molar value.

compound | pEC50
CCC1CCCN(CC(O)Cn2c3ccc(F)cc3c3cc(F)ccc32)C1=O (stereo unspecified) | 6.48
O=C1C(c2ccccc2)CCCN1CC(O)Cn1c2ccc(F)cc2c2cc(F)ccc21 (stereo unspecified) | 6.26
O=C1C(F)CCCN1CC(O)Cn1c2ccc(F)cc2c2cc(F)ccc21 (stereo unspecified) | 7.10
CCN1CCCN(CC(O)Cn2c3ccc(F)cc3c3cc(F)ccc32)C1=O (stereo unspecified) | 6.30
CC1CC(=O)N(CC(O)Cn2c3ccc(F)cc3c3cc(F)ccc32)C1 (stereo unspecified) | 5.99
COC1CCCN(CC(O)Cn2c3ccc(F)cc3c3cc(F)ccc32)C1=O (stereo unspecified) | 6.48
CC1CCC(=O)N1CC(O)Cn1c2ccc(F)cc2c2cc(F)ccc21 (stereo unspecified) | 6.70
O=C1CC2CC2CN1CC(O)Cn1c2ccc(F)cc2c2cc(F)ccc21 (stereo unspecified) | 6.83
O=C1CCc2ccccc2N1CC(O)Cn1c2ccc(F)cc2c2cc(F)ccc21 (stereo unspecified) | 5.13
O=C1CCC2CC2N1CC(O)Cn1c2ccc(F)cc2c2cc(F)ccc21 (stereo unspecified) | 6.25
CC1CCCN(CC(O)Cn2c3ccc(F)cc3c3cc(F)ccc32)C1=O (stereo unspecified) | 5.94

This collection of values is drawn from ChEMBL document CHEMBL4184118.
